Test system: Adenosine receptor A2a, Bos taurus
Protocol Summary: Percent displacement of [3H]CGS-21680 binding to adenosine A2A receptors of bovine striatal membranes at 0.00001 M
Quick list: Displacement per entry.
Please answer using the number first and the unit second.

[Q] Please supply the value of reported Displacement for the item C[C@@]1(O)[C@@H](CO)OC(n2cnc3c(NC4CCCC4)ncnc32)[C@@H]1O (stereo not given in full)
[A] 2%

----------
Tested on: Adenosine receptor A3, Bos taurus
Protocol Summary: Percent displacement of [125I]AB-MECA binding to adenosine A3 receptors of bovine cortical membranes at 0.00001 M
Metric: Displacement (%)
Lab book: enter the figure in %, no units written.

// known answers, use as guide
Compound	Numeric Value
C[C@@]1(O)[C@@H](CO)OC(n2cnc3c(NCc4cccc(I)c4)ncnc32)[C@@H]1O (stereo partly specified)	10
CNC(=O)[C@H]1OC(n2cnc3c(NCc4cccc(I)c4)nc(NC)nc32)[C@](C)(O)[C@@H]1O (stereo partly specified)	12
C[C@@]1(O)[C@@H](CO)OC(n2cnc3c(NC4CCCC4)ncnc32)[C@@H]1O (stereo partly specified)	30
CCNC(=O)[C@H]1OC(n2cnc3c(N)ncnc32)[C@H](O)[C@]1(C)O (stereo partly specified)	28
C[C@@]1(O)[C@@H](CO)OC(n2cnc3c(NCc4ccccc4)ncnc32)[C@@H]1O (stereo partly specified)	15

Next compound, Displacement to be filled in.
[Q] Report measured Displacement; entry is C[C@@]1(O)[C@@H](CO)OC(n2cnc3c(NC4CCCCC4)ncnc32)[C@@H]1O (stereo partly specified)
[A] 0

----------
Target Or Test System: Adenosine receptor A2a (Bos taurus)
Protocol Summary: Displacement of [3H]CGS-21680 binding to adenosine A2A receptors of bovine striatal membranes
Metric: pKi
// returns pKi (minus log10 of molar concentration), number only

Answered examples (2):
Smiles Text	pKi
C[C@@]1(O)[C@@H](CO)O[C@@H](n2cnc3c(NCc4cccc(I)c4)nc(Cl)nc32)[C@@H]1O	5.49
CNC(=O)[C@H]1O[C@@H](n2cnc3c(NCc4cccc(I)c4)ncnc32)[C@](C)(O)[C@@H]1O	5.90

Shifting focus to the compound that follows.
[Q] Give the observed pKi of CNC(=O)[C@H]1O[C@@H](n2cnc3c(NCc4cccc(I)c4)nc(NC)nc32)[C@H](O)[C@]1(C)O for Adenosine receptor A2a (Bos taurus).
[A] 5.40

----------
System: Adenosine receptors A1 & A3 (Bos taurus)
Protocol Summary: Relative affinities for adenosine A3 and A1 receptors (ratio of KiA3/KiA1)
Metric: Ratio
Lab note: record the figure alone, no unit after it.

Smiles Text	Numeric Value
C[C@@]1(O)[C@H](O)[C@@H](CO)O[C@H]1n1cnc2c(NC3CCCCC3)ncnc21	85.3
CNC(=O)[C@H]1O[C@@H](n2cnc3c(NCc4cccc(I)c4)ncnc32)[C@H](O)[C@]1(C)O	0.57

[Q] Given the molecule CNC(=O)[C@H]1O[C@@H](n2cnc3c(NCc4cccc(I)c4)ncnc32)[C@](C)(O)[C@@H]1O , write its reported Ratio.
[A] 0.68

[Q] Give the value of Ratio reported for the following: CNC(=O)[C@H]1O[C@@H](n2cnc3c(NCc4cccc(I)c4)nc(NC)nc32)[C@H](O)[C@]1(C)O
[A] 0.92

[Q] State its Ratio for this molecule: C[C@@]1(O)[C@@H](CO)O[C@@H](n2cnc3c(NCc4cccc(I)c4)nc(Cl)nc32)[C@@H]1O
[A] 0.62

[Q] State its Ratio for this molecule: C[C@@]1(O)[C@H](O)[C@@H](CO)O[C@H]1n1cnc2c(NCc3ccccc3)ncnc21
[A] 1.4

[Q] Kindly indicate its recorded Ratio. Item: CNC(=O)[C@H]1O[C@@H](n2cnc3c(NCc4cccc(I)c4)nc(Cl)nc32)[C@H](O)[C@]1(C)O
[A] 1.27

----------
Displacement listing for selected compounds.
Tested on: Adenosine receptor A2a, Bos taurus
Protocol Summary: Percent displacement of [3H]CGS-21680 binding to adenosine A2A receptors of bovine striatal membranes at 0.00001 M
Express the result in % but write the number alone.

See these solved cases before continuing.
Compound	Target Or Test System	Numeric Value
C[C@@]1(O)[C@H](O)[C@@H](CO)O[C@H]1n1cnc2c(NCc3ccccc3)ncnc21	Adenosine receptor A2a, Bos taurus	40
CNC(=O)[C@H]1O[C@@H](n2cnc3c(NCc4cccc(I)c4)ncnc32)[C@H](O)[C@]1(C)O	Adenosine receptor A2a, Bos taurus	5

// next entry
[Q] Supply reported Displacement belonging to this compound: CNC(=O)[C@H]1OC(n2cnc3c(NCc4cccc(I)c4)nc(NC)nc32)[C@](C)(O)[C@@H]1O (some centres undefined)
[A] 0

----------
Tested on: Adenosine receptor A2a, Bos taurus
Protocol Summary: Percent displacement of [3H]CGS-21680 binding to adenosine A2A receptors of bovine striatal membranes at 0.00001 M
Metric: Displacement (%)
All answers are understood in %, so give the number only.

Molecule	Numeric Value
CNC(=O)[C@H]1O[C@@H](n2cnc3c(NCc4cccc(I)c4)nc(Cl)nc32)[C@H](O)[C@]1(C)O	15
C[C@@]1(O)[C@H](O)[C@@H](CO)O[C@H]1n1cnc2c(NC3CCCCC3)ncnc21	28
C[C@@]1(O)[C@@H](CO)OC(n2cnc3c(NCc4cccc(I)c4)ncnc32)[C@@H]1O (stereo partly specified)	0
CCNC(=O)[C@H]1OC(n2cnc3c(N)ncnc32)[C@H](O)[C@]1(C)O (stereo partly specified)	0
C[C@@]1(O)[C@@H](CO)OC(n2cnc3c(NC4CCCCC4)ncnc32)[C@@H]1O (stereo partly specified)	0

[Q] Tell me measured Displacement for C[C@@]1(O)[C@@H](CO)OC(n2cnc3c(NCc4ccccc4)ncnc32)[C@@H]1O (stereo partly specified) please.
[A] 21
